- PROCEDURE_SUMMARY: soluble on expression in E. coli; label from the status in PepcDB or PDB records
MEASURED_PARAMETER: soluble on expression in E. coli

Solved entries (count: 5):
MAKAPDVVDLLALAVERGASDLVITVGLPPMLKIDGEFHPTEYEPLTPQETRRLMYALMDEKQQRIFEEEKELDFSFSLPGKGRYRVNVFLQRGSVGGVLRVVPSAVKSFEELGLPKNIAEIAMSPRGLVLVTGPTGSGKSTTLASMIDYINERKACHIVTIEDPIEFFHKHKRAIVNQREIGSDTKSFHKALRSVLRQAPDVILVGEMRDYETIAAAITAAETGHLVMGTLHTNSAPETIDRIVDVFPENQQEQVRVQLSNNLVAVLTQQLLPKAFGGGRVLAYELMIATPAVRALIREGKTHQLRSVIQTGGQYGMITMDACLADLYRRKLITYEMGLARAVDPKEFMRLAGAPEGARR: soluble
MGSDKIHHHHHHMKILPVISTKGGEGKSTQAANLAGFFADAGLKTLLIDGDYSQPTASSIYALEHEAPFGLFELLMQTTDLNQPESIISRTAIPNLDLIISNDPDDRLPTAMLHAPDGRMRLKNILQHQSFQSYDVIMIDSKGAAGVMVELVVLAATENVVGVIKPILPDVREFMRGTVRLMSRLLALQAYGIQIPDIKILANCVENTSLDRKTLEELGNIVSEKKYLQSESINISILETKIDQLEVYKRGHAFGQPVHRLEYVTDRKSAAAAVTMHSLACELFPHWKDKFDSVLRNQTGAGEVASV: not soluble
ELEPGAFSELYQRYRHCDAPICLYEQGRDSFEDEGRWRLILCATCGSHGTHRDCSSLRPNSKKWECNECLPA: soluble
MIICKTPREIEIMREAGRIVALTHQELKQHITPGITTKELDQIAEKTIQKYGATPSFKGYNGFPGSICASVNEELVHGIPGKRKLKEGDIISIDIGAKYNGYHGDSAWTYPVGNISESVQKLLDVTEKSLYLGLEQVKPGERLSNISHAVQTHAEENGFSIVREYVGHGIGQDLHEDPQIPHYGPPNRGPRLKPGMVICVEPMVNQGRRYVKTLSDDWTVVTVDGKWCAHFEHTIALTEAGYEILTTL: soluble
MGSDKIHHHHHHMTLMKPADVSQRQSTSVLHSSSHSPSQNHLLAALPQVELESFSDHLELVPMPLGEFLYEPGSGLEYVYFPTTCIVSLHYVLSSGATAETAGVGNEGVVGVSLFMGGNTTASSAVVQTAGYGYRLNKKILMREFDRSGLLQRVLLRYTQALMTQMSQTAVCNRHHSLEQQFCRWLLLTLDRMPTNELVMTHELVASMLGVYREGISLAAGKLQQAGVISYRRGHISVLDRAKLELKSCECYQVVKTELDRLLSDGLLADAKFIKTKTDTQTSKTQ: not soluble

Reported soluble on expression in E. coli for MDGDFRTSFVREPAGLRPYPALVLNADYRPLSYYPLSLWPWQEAIKAAFLDRVSIVAEYDQVVRSQRAALRIPSVVVLKEFVSPQKRVAFTRFNLFLRDEFRCQYCGAKGDLTFDHVVPRARGGVTSWQNVVAACSPCNLHKGSKTLKQAGMRLARIPREPTPAEMQRHGQRFPPNHLHDSWLDYLYWDAELEALEHHHHHH was not soluble

Reported soluble on expression in E. coli ( SDCLIVVDTRAAIRRVNRAALTMLGYDEEQLLGMPVGVIFAWERDKERLRTEGLRCFVESIGSSPAEFTFLSSDERRTPVLLSASPMLGRD ) = not soluble

The sequence listed as MSQNDLNKEKALVVFSGGQDSTTCLFYAKKHFKEVELVTFNYGQRHDKEIEVAKKIAKEQNLKHHILDMSLLSQLTPNALTQHELSIEDNDDGIPNTFVPARNLLFLSFAGALAYQIHAKHIITGVCETDFSGYPDCRDSFIKSMNVTLSLSMDKDFVIHTPLMWLDKAQTWALSDKLGVLDYIRHNTLTCYNGIIGDGCGECPACHLRARGLKHYLEHKGEE has a reported soluble on expression in E. coli of not soluble

Record MSLYYICPYFLDKNGHRVQKTMVGKVALDEQKLTPQKFSITYPLIINLQDEKVKTKVNEDIVNQVSELFKNQVLLTEKIDLSEVFGAYEIGVNRNYILSILFSIYTYMNRAAHGLTVYSSITVNTRTGKVYSFSDLFNPKMNYLGELTTIVKKYIKDNNIQLIEDYKGVTNDQEFYLTNDKLVLYYQVYAYTPYYYGLFRIPIPYTEIKNLLGPMSPINNLIEGHHHHHH . Reported soluble on expression in E. coli: not soluble

For this sequence ( MRMAQVVLENVTKVYENKVVAVKNANLVVEDKEFVVLLGPSGCGKTTTLRMIAGLEEITDGKIYIDGKVVNDVEPKDRDIAMVFQNYALYPHMTVYENMAFGLKLRKYPKDEIDRRVREAAKILGIENLLDRKPRQLSGGQRQRVAVGRAIVRNPKVFLFDEPLSNLDAKLRVQMRSELKKLHHRLQATIIYVTHDQVEAMTMADKIVVMKDGEIQQIGTPHEIYNSPANVFVAGFIGSPPMNFVNARVVRGEGGLWIQASGFKVKVPKEFEDKLANYIDKEIIFGIRPEDIYDKLFALAPSPENTITGVVDVVEPLGSETILHVKVGDDLIVASVNPRTQAKEEQKIDLVLDMTRMHAFDKETEKAII ), measured soluble on expression in E. coli is soluble

Value of soluble on expression in E. coli reported for the sequence MSTSADYKINQQQIVCVASFLSKEGKTEALIAALASLIPDTRREAGCIRYELNVSRDEPRRVTFVEKFVDIAAFDEHCAKDAIQHYFHQVMPELVESFHVETYHQVIA is soluble

So for MGSDKIHHHHHHMKKIQIVDDSQSNIRKLENLLNTHFLVTVARTGEEAVRMAKENVPDLILLEVALPDMDGFETCRRLKAQVESAKIPVIFVSSLKEKEAVIKGFEVGGQDYIIKPFEARELVLRMKSLLKQESSRKRLEQHVKVLEEQNEKLKGKIQKVDRLSRVDFLTNLMNRRDMQEKIRAEINRSIRHGRSFTLAIVDIDFFKNINDTYGHDCGDHVLKHFVSTLKNSVRSSDYVSRWGGEEFLLLFPETKLEEGKRACEKIRQKINESPVIYKGMSISITATFGISEYRPSVRIEELIKAADDALYKGKKTGKNQVVVQSM , the logged soluble on expression in E. coli turned out to be not soluble
